Cited source for all entries: patent US20240116912A1

target: full length human FXR protein (Homo sapiens (Human), UniProt Q96RI1); assay: FXR cellular assay (FXR-SRCP β-gal enzyme fragment complementation in CHO-K1 cells, chemiluminescence); settings: CHO-K1 cells with SRCP-EA and ProLink-labeled FXR, 0-10 micromolar compound, 37° C. for 6h, read-out: EC50 FXR-cell Luminescence/
Sequence (Q96RI1 whole entry, the tested form may be a part): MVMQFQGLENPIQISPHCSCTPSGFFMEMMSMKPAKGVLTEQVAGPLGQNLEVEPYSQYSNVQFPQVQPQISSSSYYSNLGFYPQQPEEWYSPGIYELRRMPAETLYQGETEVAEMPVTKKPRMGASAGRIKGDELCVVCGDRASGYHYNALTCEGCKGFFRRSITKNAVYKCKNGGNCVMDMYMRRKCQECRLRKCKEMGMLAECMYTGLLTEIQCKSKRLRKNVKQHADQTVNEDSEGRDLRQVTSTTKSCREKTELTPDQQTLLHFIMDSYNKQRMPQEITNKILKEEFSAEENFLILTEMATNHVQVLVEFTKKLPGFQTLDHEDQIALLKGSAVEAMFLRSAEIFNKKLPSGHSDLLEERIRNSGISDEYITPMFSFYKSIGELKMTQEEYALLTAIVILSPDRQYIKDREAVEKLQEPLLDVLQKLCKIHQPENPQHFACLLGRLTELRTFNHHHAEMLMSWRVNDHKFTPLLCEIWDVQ
property_label: EC50 (nM)

// below: answered compounds
compound	property_label	quantity_unit	assay_value
O=c1[nH]c(-c2ccc(N3CCC(OCc4c(-c5c(Cl)cccc5Cl)noc4C4CC4)CC3)cc2Cl)no1	EC50	nM	64
C[C@@H]1C[C@H](OCc2c(-c3c(Cl)cccc3Cl)noc2C2CC2)CCN1c1ccc(-c2noc(=O)[nH]2)cn1	EC50	nM	24.7
O=c1[nH]c(-c2ncc(N3CCC(OCc4c(-c5c(Cl)cccc5Cl)noc4C4CC4)CC3)cn2)no1	EC50	nM	2110

A: O=c1cnn(-c2ccc(N3CCC(OCc4c(-c5c(Cl)cccc5Cl)noc4C4CC4)CC3)cc2)c(=O)[nH]1
B: O=c1[nH]c(-c2ccc(N3CCC(OCc4c(-c5ccccc5OC(F)(F)F)noc4C4CC4)CC3)cc2)no1
C: O=c1[nH]c(-c2cnc(N3CCC(OCc4c(-c5c(Cl)cccc5Cl)noc4C4CC4)CC3)nc2)no1
D: O=c1[nH]nc(-c2ccc(N3CCC(OCc4c(-c5c(Cl)cccc5Cl)noc4C4CC4)CC3)cc2)o1
[ask] Rank ascending by EC50. List the labels in the requested order.
[reply] B, D, C, A

P: O=c1[nH]c(-c2coc(N3CCC(OCc4c(-c5c(Cl)cccc5Cl)noc4C4CC4)CC3)n2)no1
Q: O=c1[nH]c(-c2ccc(N3CCCC(OCc4c(-c5c(Cl)cccc5Cl)noc4C4CC4)CC3)cc2)no1 (stereo not shown)
[ask] Lab note: check whether P or Q shows the higher recorded EC50. Returns: label corresponding to the selected item.
[reply] P

a: O=c1cnn(-c2ccc(N3[C@@H]4CC[C@H]3C[C@@H](OCc3c(-c5ccccc5OC(F)(F)F)noc3C3CC3)C4)cc2)c(=O)[nH]1
b: O=c1cc(-c2ccc(N3CCC(OCc4c(-c5c(Cl)cccc5Cl)noc4C4CC4)CC3)nc2)o[nH]1
c: C[C@@H]1CN(c2ccc(-c3noc(=O)[nH]3)cc2)CC[C@H]1OCc1c(-c2c(Cl)cccc2Cl)noc1C1CC1
d: COc1cccc(F)c1-c1noc(C2CC2)c1COC1CCN(c2ccc(-c3noc(=O)[nH]3)cc2)CC1
e: N#Cc1n[nH]c(=O)n(-c2ccc(N3CCC(OCc4c(-c5c(Cl)cccc5Cl)noc4C4CC4)CC3)nc2)c1=O
[ask] // ranking: key=EC50, reverse=True Provide your answer as the labels ordered per the instruction.
[reply] e, d, c, a, b

A: C[C@H]1C[C@@H](OCc2c(-c3c(Cl)cccc3Cl)noc2C2CC2)CCN1c1ccc(-c2noc(=O)[nH]2)cc1
B: O=C(c1noc(=O)[nH]1)N1CCC(OCc2c(-c3c(Cl)cccc3Cl)noc2C2CC2)CC1
[ask] Kindly identify the item with the lower EC50 figure among these two: A and B Refer to your chosen item by its label in the answer.
[reply] A
(A: 418 nM, B: 1130 nM)

====

Target: UniProt Q96RI1
Assay: FXR cellular assay (FXR-SRCP β-gal enzyme fragment complementation in CHO-K1 cells, chemiluminescence)
Details: CHO-K1 cells with SRCP-EA and ProLink-labeled FXR, 0-10 micromolar compound, 37° C. for 6h, read-out: EC50 FXR-cell Luminescence/
Protocol: A cell based FXR assay was used to detect protein-protein interactions between an activated (ligand-bound), full length human FXR protein and a nuclear fusion protein containing a Steroid Receptor Coactivator Peptide (SCRP) domain. […] CHO-K1 cells containing SRCP-EA and ProLink-labeled FXR were plated in 384-well microplates and incubated at 37° C. overnight. […] Microplates were analyzed using an Envision reader (PerkinElmer Life and Analytical Sciences, Signal=chemiluminescence).
pEC50: −log10 of the molar value.
property_label: pEC50

compound_smiles	pEC50
O=c1cc(-c2ccc(N3CCC(OCc4c(-c5c(Cl)cccc5Cl)noc4C4CC4)CC3)cc2)o[nH]1	6.71

a: O=c1[nH]nc(-c2ccc(N3CCC(OCc4c(-c5ccccc5OC(F)(F)F)noc4C4CC4)CC3)cc2)c(=O)[nH]1
b: O=c1[nH]nc(-c2ccc(N3CCC(OCc4c(-c5c(Cl)cccc5Cl)noc4C4CC4)CC3)cn2)c(=O)[nH]1
[ask] Parameter check: reported pEC50 is higher for which label, a or b ? Selection: enter the item's label.
[reply] a
(a: 6.30, b: 5.00)

====

target: ligand binding domain (LBD) of recombinant human FXR (Homo sapiens (Human)); experiment: FXR cell free coactivator (SRC-1) recruitment assay, TR-FRET; conditions: FXR LBD (amino acids 244-476) with labeled SRC-1 domain, 25° C. for 60 minutes, activity relative to CDCA maximum; read-out: EC50 FXR- Biochemical TR-FRET/μM
Sequence (Q96RI1 254-486): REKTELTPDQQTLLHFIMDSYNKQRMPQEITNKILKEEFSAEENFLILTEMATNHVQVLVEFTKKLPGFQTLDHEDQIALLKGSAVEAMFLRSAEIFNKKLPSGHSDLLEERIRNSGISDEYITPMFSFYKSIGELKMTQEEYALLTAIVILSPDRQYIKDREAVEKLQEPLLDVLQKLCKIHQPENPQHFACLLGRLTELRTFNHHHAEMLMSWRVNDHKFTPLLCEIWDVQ
Sequence (Q15788 whole entry partner, the tested form may be a part): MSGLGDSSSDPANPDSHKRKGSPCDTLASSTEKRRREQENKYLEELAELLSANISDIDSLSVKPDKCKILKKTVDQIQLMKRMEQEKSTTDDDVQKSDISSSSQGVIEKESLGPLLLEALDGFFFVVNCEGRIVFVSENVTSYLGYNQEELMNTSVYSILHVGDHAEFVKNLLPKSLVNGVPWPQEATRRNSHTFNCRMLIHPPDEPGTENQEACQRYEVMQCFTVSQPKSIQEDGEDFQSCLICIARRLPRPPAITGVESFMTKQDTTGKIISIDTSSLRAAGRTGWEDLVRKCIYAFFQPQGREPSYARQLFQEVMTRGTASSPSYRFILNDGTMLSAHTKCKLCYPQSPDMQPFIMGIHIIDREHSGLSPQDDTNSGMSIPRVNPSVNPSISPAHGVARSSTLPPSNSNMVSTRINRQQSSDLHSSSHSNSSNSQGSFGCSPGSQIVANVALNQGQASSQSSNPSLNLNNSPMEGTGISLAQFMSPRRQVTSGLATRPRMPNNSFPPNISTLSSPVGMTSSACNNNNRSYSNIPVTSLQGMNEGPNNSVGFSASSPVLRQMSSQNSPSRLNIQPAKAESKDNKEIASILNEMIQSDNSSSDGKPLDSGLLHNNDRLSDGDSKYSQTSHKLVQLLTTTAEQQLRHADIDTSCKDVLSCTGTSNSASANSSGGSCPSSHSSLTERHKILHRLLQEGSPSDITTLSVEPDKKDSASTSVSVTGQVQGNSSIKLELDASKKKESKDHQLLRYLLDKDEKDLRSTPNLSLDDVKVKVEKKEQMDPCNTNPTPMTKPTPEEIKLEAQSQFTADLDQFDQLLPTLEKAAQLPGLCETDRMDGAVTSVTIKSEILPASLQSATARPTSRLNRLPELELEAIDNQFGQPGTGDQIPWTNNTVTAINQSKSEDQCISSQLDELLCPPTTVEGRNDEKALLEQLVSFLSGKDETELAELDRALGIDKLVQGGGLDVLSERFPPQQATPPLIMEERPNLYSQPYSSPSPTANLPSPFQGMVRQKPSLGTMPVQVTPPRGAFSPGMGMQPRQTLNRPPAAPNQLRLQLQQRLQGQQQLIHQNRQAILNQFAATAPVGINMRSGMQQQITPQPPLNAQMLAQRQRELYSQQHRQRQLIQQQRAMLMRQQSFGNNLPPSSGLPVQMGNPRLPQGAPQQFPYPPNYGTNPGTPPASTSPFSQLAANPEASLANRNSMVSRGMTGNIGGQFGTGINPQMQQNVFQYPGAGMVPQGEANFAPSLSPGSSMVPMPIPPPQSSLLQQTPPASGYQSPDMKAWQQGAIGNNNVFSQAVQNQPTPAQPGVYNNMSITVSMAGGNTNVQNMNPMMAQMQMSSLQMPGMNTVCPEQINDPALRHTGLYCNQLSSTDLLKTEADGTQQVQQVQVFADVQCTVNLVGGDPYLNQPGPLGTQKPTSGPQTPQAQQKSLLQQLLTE
property_label: EC50 (µM)

Check out these entries, answers already filled in.
compound	assayed_target	property_label	assay_value
O=c1[nH]c(-c2cc(N3CCC(OCc4c(-c5c(Cl)cccc5Cl)noc4C4CC4)CC3)n[nH]2)no1 [Example 58]	ligand binding domain (LBD) of recombinant human FXR (Homo sapiens (Human))	EC50	0.421
O=c1[nH]c(-c2ccc(N3CCC(OCc4c(-c5c(Cl)cccc5Cl)noc4C4CC4)CC3)cc2F)no1 [Example 13]	ligand binding domain (LBD) of recombinant human FXR (Homo sapiens (Human))	EC50	0.0035
O=c1[nH]nc(-c2ccc(N3[C@@H]4CC[C@H]3C[C@@H](OCc3c(-c5ccccc5OC(F)(F)F)noc3C3CC3)C4)cc2)o1 [Example 65]	ligand binding domain (LBD) of recombinant human FXR (Homo sapiens (Human))	EC50	0.0221

a: O=c1cc(-c2ccc(N3CCC(OCc4c(-c5c(Cl)cccc5Cl)noc4C4CC4)CC3)nc2)o[nH]1 [Example 59]
b: O=c1[nH]c(-c2ccc(N3CCC(OCc4c(-c5c(F)cccc5F)noc4C4CC4)CC3)nc2)no1 [Example 74]
c: O=c1[nH]c(-c2ccc(N3CCC(OCc4c(-c5c(F)cccc5F)noc4C4CC4)C(F)(F)C3)cc2)no1 (stereo not shown) [Example 55]
d: C[C@@H]1C[C@H](OCc2c(-c3c(Cl)cccc3Cl)noc2C2CC2)CCN1c1ccc(-c2noc(=O)[nH]2)cc1 [Example 23]
[ask] List by increasing EC50. Output spec: labels arranged per the requested ranking.
[reply] d, a, b, c

====

molecular target: ligand binding domain (LBD) of recombinant human FXR (Homo sapiens (Human)); assay: FXR cell free coactivator (SRC-1) recruitment assay, TR-FRET; details: FXR LBD (amino acids 244-476) with labeled SRC-1 domain, 25° C. for 60 minutes, activity relative to CDCA maximum; read-out: EC50 FXR- Biochemical TR-FRET/μM
property_label: EC50 (µM)

compound_smiles	property_label	assay_value
O=c1[nH]c(-c2ccc(N3[C@@H]4CC[C@H]3C[C@@H](OCc3c(-c5ccccc5OC(F)(F)F)noc3C3CC3)C4)nc2)no1	EC50	0.003

A: C[C@H]1C[C@H](OCc2c(-c3c(Cl)cccc3Cl)noc2C2CC2)CCN1c1ccc(-c2noc(=O)[nH]2)cc1
B: O=c1[nH]nc(-c2ccc(N3CCC(OCc4c(-c5ccccc5OC(F)(F)F)noc4C4CC4)CC3)nc2)o1
[ask] In the pair A and B , the larger recorded EC50 belongs to which? Field: selected label. Fill in the label of the entry you choose.
[reply] B
(B: 0.298 µM, A: 0.114 µM)

====

molecular target: ligand binding domain (LBD) of recombinant human FXR (Homo sapiens (Human)); assay: FXR cell free coactivator (SRC-1) recruitment assay, TR-FRET; conditions: FXR LBD (amino acids 244-476) with labeled SRC-1 domain, 25° C. for 60 minutes, activity relative to CDCA maximum; read-out: EC50 FXR- Biochemical TR-FRET/μM
property_label: EC50 (µM)

compound	EC50 / µM
O=c1[nH]c(-c2ccc(N3CCC(OCc4c(-c5c(Cl)cccc5Cl)noc4C4CC4)C3)cc2)no1 (centres unmarked)	0.892
O=c1[nH]c(-c2ccc(N3CCC(OCc4c(-c5ccccc5OC(F)(F)F)noc4C4CC4)C(F)(F)C3)nc2)no1 (centres unmarked)	0.07

P: O=c1[nH]c(-c2ccc(N3CCC(OCc4c(-c5c(Cl)cccc5Cl)noc4C4CC4)C(F)(F)C3)cc2)no1 (centres unmarked)
Q: O=c1[nH]c(-c2ncc(N3CCC(OCc4c(-c5c(Cl)cccc5Cl)noc4C4CC4)CC3)s2)no1
R: O=c1[nH]c(-c2ccc(N3CCC(OCc4c(-c5c(F)cccc5F)noc4C4CC4)C(F)(F)C3)nc2)no1 (centres unmarked)
S: O=c1[nH]nc(-c2ccc(N3CCC(OCc4c(-c5c(Cl)cccc5Cl)noc4C4CC4)CC3)cc2)o1
[ask] Task for the reader: rank each entry by its EC50, from the minimum upward. The response must list the labels following the requested ordering.
[reply] P, Q, S, R

A: O=c1[nH]nc(-c2ccc(N3CCC(OCc4c(-c5c(Cl)cccc5Cl)noc4C4CC4)CC3)cc2F)o1
B: O=c1[nH]c(-c2cc(N3CCC(OCc4c(-c5c(Cl)cccc5Cl)noc4C4CC4)CC3)cs2)no1
[ask] Field: entry with larger EC50 (options A / B ). Kindly state the label of the option you pick.
[reply] B

I: O=c1[nH]c(-c2ccc(N3CCC(OCc4c(-c5c(Cl)cccc5Cl)noc4C4CC4)CC3)cc2Cl)no1
II: C[C@@H]1CN(c2ccc(-c3noc(=O)[nH]3)cc2)CC[C@@H]1OCc1c(-c2c(Cl)cccc2Cl)noc1C1CC1
III: C[C@H]1CN(c2ccc(-c3noc(=O)[nH]3)cc2)CC[C@H]1OCc1c(-c2c(Cl)cccc2Cl)noc1C1CC1
[ask] Order the 3 compounds from highest to lowest EC50. Please, when replying, give the labels in the order that was requested.
[reply] II, III, I
(II: 0.045 µM, III: 0.0126 µM, I: 0.0085 µM)

A: O=c1cn[nH]c(=O)n1-c1ccc(N2CCC(OCc3c(-c4c(Cl)cccc4Cl)noc3C3CC3)CC2)nc1
B: O=c1cc(-c2ccc(N3CCC(OCc4c(-c5c(Cl)cccc5Cl)noc4C4CC4)CC3)cc2)o[nH]1
C: O=c1[nH]c(-c2ccc(N3CCC(OCc4c(-c5c(Cl)cccc5Cl)noc4C4CC4)CC3)c(F)c2)no1
[ask] Rank order required: EC50, descending. List the labels in the requested order.
[reply] A, B, C
